Test: qHTS Assay for Lipid Storage Modulators in Drosophila S3 Cells
Conditions: BODIPY lipid droplet fluorescence, 18-24 h, cells fed with added oleic acid; series mostly up to 46.1 µM
About 2,100 (0.66%) of roughly 320,000 compounds were called active. Another 53% or so got no clear call; they are omitted. Calls come from the whole dose curve; as a rule, active = well fitted inhibition curve with a large enough effect in the signal ratio, with a control signal flat (not every such curve was filed as active); inconclusive = small, poorly fitted or top-dose-only effect, or effect the other way, or a change in a side signal; inactive = flat fitted curve, though single readings scatter; the % refers to the signal ratio. The sample as a whole holds a higher share of actives than the screen did.
Outcomes: true (1) = active, false (0) = inactive

>  <Molecule>
O=C(NCC1CCCO1)c1ccc(NC(=O)c2ccc([N+](=O)[O-])cc2)cc1 (stereo not drawn)

>  <Label>
false (0)

$$$$
>  <Molecule>
COc1ccc(NC(=O)C2C3C=CC4(O3)C2C(=O)N(CCN2CCCCC2)C4C(=O)NC2CCCC(C)C2C)cc1 (stereo not drawn)

>  <Label>
true (1)

$$$$
>  <Molecule>
Cc1ccc(S(=O)(=O)NC(CC(=O)n2nc(C)cc2C)c2ccccc2)cc1 (stereo not drawn)

>  <Label>
false (0)

$$$$
>  <Molecule>
Cc1nnc2c(NCCc3ccccc3)nc3ccccc3n12

>  <Label>
false (0)

$$$$
>  <Molecule>
CCc1ccc2oc(=O)cc(CN3CCN(Cc4ccccc4)CC3)c2c1

>  <Label>
false (0)

$$$$
>  <Molecule>
Cc1ccc2nc(-c3ccc4c(c3)NC(=O)CO4)cn2c1

>  <Label>
false (0)

$$$$
>  <Molecule>
COc1cccc(NC(=O)C2C3C=CC4(O3)C2C(=O)N(CCCN2CCCCC2)C4C(=O)NC2CCCCC2)c1 (stereo not drawn)

>  <Label>
false (0)

$$$$
>  <Molecule>
CN(CC(=O)Nc1ccc(N2CCOCC2)cc1)C(=O)C12CC3CC(CC(C3)C1)C2

>  <Label>
false (0)

$$$$

---

Assay: qHTS Assay for Lipid Storage Modulators in Drosophila S3 Cells
Conditions: BODIPY lipid droplet fluorescence, 18-24 h, cells fed with added oleic acid; series mostly up to 46.1 µM
Out of some 320,000 compounds screened, about 2,100 (0.66%) were called active. Inconclusive results (about 53%) are left out. Calls follow the shape of the dose curve; as a rule, active = well fitted inhibition curve with a large enough effect in the signal ratio, with a control signal flat (not every such curve was filed as active); inconclusive = small, poorly fitted or top-dose-only effect, or effect the other way, or a change in a side signal; inactive = flat fitted curve, though single readings scatter; the % refers to the signal ratio. For the sample, actives were picked, then their nearest neighbours and some compounds at random.
Outcomes: active, inactive

>  <Molecule>
CCCN1C(=O)S/C(=C\c2ccc(N3CCOCC3)cc2C)C1=O

>  <Label>
inactive

$$$$
>  <Molecule>
O=C(/C=C/c1cccc([N+](=O)[O-])c1)N1CCOCC1

>  <Label>
inactive

$$$$
>  <Molecule>
CC(=O)Nc1ccc(C(=O)NC(CC(=O)O)c2ccc(Cl)cc2)cc1 (configuration not stated)

>  <Label>
active

$$$$
>  <Molecule>
O=C(/C=C/c1cccc([N+](=O)[O-])c1)N1CCN(C(=O)c2ccco2)CC1

>  <Label>
inactive

$$$$
>  <Molecule>
CCN1C(=O)c2cccc3c(Cl)ccc1c23

>  <Label>
inactive

$$$$
>  <Molecule>
O=C(Nc1ccc(F)cc1)C(c1ccccc1)N1CCN(C(=O)c2ccco2)CC1 (configuration not stated)

>  <Label>
inactive

$$$$
>  <Molecule>
CCCNC(=O)Cn1c(=O)n(CC(=O)N2CCCCC2)c(=O)c2sccc21

>  <Label>
inactive

$$$$
>  <Molecule>
O=C(/C=C/c1cccc([N+](=O)[O-])c1)c1ccco1

>  <Label>
active

$$$$
>  <Molecule>
CSCCC(=O)NC1CC(C)(C)Cc2c1cnn2-c1ccccc1C (configuration not stated)

>  <Label>
inactive

$$$$
>  <Molecule>
COCCCNC(=S)N(Cc1ccccc1)Cc1ccccc1

>  <Label>
inactive

$$$$
>  <Molecule>
COc1ccc([N+](=O)[O-])cc1NC(=O)c1cccs1

>  <Label>
inactive

$$$$
>  <Molecule>
C=CC(C)N1C(=O)S/C(=C\c2ccc(N3CCOCC3)cc2C)C1=O (configuration not stated)

>  <Label>
active

$$$$
>  <Molecule>
COC(=O)c1[nH]c(C)c(/C(O)=C2\C(=O)C(=O)N(CCN(C)C)C2c2cccc(OC)c2OC)c1C (configuration not stated)

>  <Label>
inactive

$$$$
>  <Molecule>
CC(=O)C1=C(O)C(=O)N(c2ccc(S(N)(=O)=O)cc2)C1c1cccc([N+](=O)[O-])c1 (configuration not stated)

>  <Label>
inactive

$$$$
>  <Molecule>
CC(C)C(=O)Nc1ccc(C(=O)N2CCN(C(=O)c3ccco3)CC2)cc1

>  <Label>
active

$$$$
>  <Molecule>
O=C(c1ccc(NS(=O)(=O)c2cccc([N+](=O)[O-])c2)cc1)N1CCCCCC1

>  <Label>
inactive

$$$$
>  <Molecule>
COc1cc(C(=O)Nc2ccc(C)cn2)ccc1OCC(=O)N1CCOCC1

>  <Label>
active

$$$$
